Experiment: CLint (intrinsic clearance) assay, microsomal incubation
Type: in vitro ADME, Human
Details: human, liver microsomes, pH 7.4, human liver microsomes 0.5 mg/mL protein, NADPH, 37° C., up to 30 min
Protocol: 2. CLint (Intrinsic Clearance) Assay A Tecan Genesis workstation (RWS ASY 150/8) was used to perform the microsomal incubations. Analysis was carried out using a Waters ACQUITY UPLC system coupled to an ABSciex API3000 mass spectrometer. […] The metabolic stability of each compound was determined by measurement of the change in LC-MS/MS peak area over time. […] The intrinsic clearance (CLint) of each compound was then calculated according to the formula: CLint(μL/min/mg protein)=k1000/protein concentration. […]
Metric: microsomal CLint at 0.8 μM (µL/min/mg)

- Molecule: "O=C1NCCC12CCN(c1c(Cl)cncc1-c1ccc3oc(=O)[nH]c3c1)CC2"
  Value: 35
- Molecule: "O=C1NCCC12CCN(c1c(Cl)cncc1-c1ccc3c(c1)CS(=O)(=O)C3)CC2"
  Value: 70
- Molecule: "Cn1ncc2cc(-c3cncc(Cl)c3N3CCC4(CC3)NCNC4=O)ccc21"
  Value: 47
- Molecule: "CC(C)(O)Cn1cc(-c2ccc(-c3cncc(Cl)c3N3CCC4(CC3)CNC(=O)O4)cc2)cn1"
  Value: 11

A: O=C1CCc2ccc(-c3cncc(Cl)c3N3CCC4(CCNC4=O)CC3)cc2N1
B: O=C1NCCC12CCN(c1c(Cl)cncc1-c1ccc(-c3cnn([C@H]4CCC[C@@H]4O)c3)cc1)CC2 (racemic)
Inquiry: I need your help: which of the pair A , B has higher microsomal CLint at 0.8 μM? Identify your pick by its label.
Reply text: B

----------
Assay: CLint (intrinsic clearance) assay, microsomal incubation
Format: in vitro ADME, Human
Settings: human liver microsomes 0.5 mg/mL protein, NADPH, 37° C., up to 30 min
Metric: Human Clint (µL/min/mg)

- Chemical string: "O=C1NCCC12CCN(c1c(Cl)cncc1-c1ccc(-c3cnn(CCO)c3)cc1)CC2"
  Measurement unit: "µL/min/mg"
  Human Clint: 40

P: CNc1n[nH]c2cc(-c3cncc(Cl)c3N3CCC4(CCNC4=O)CC3)ccc12
Q: Cn1cc(-c2ccc(-c3cncc(C(F)(F)F)c3N3CCC4(CCNC4=O)CC3)cc2)cn1
R: CN1c2ccc(-c3cncc(Cl)c3N3CCC4(CC3)NC(=O)NC4=O)cc2CS1(=O)=O
S: CN1c2ccc(-c3cncc(F)c3N3CCC4(CCNC4=O)CC3)cc2CS1(=O)=O
T: CN1C(=O)NC(=O)C12CCN(c1c(Cl)cncc1-c1ccc(-c3cnn(C)c3)cc1)CC2
Inquiry: Hey, quick one: sort these by Human Clint, largest value first please. API: response body holds the labels in the requested order.
Reply text: Q, P, S, T, R

----------
Experiment: CLint (intrinsic clearance) assay, microsomal incubation
Format: in vitro ADME, Human
Conditions: human, liver microsomes, pH 7.4, human liver microsomes 0.5 mg/mL protein, NADPH, 37° C., up to 30 min
Metric: microsomal CLint at 0.8 μM (µL/min/mg)

Sample records with microsomal CLint at 0.8 μM:
- Chemical string: "CN1C(=O)Cc2ccc(-c3cncc(Cl)c3N3CCC4(CC3)NCNC4=O)cc21"
  Measurement unit: "µL/min/mg"
  microsomal CLint at 0.8 μM: 20
- Chemical string: "CS(=O)(=O)CCn1cc(-c2ccc(-c3cncc(Cl)c3N3CCC4(CC3)CNC(=O)O4)cc2)cn1"
  Measurement unit: "µL/min/mg"
  microsomal CLint at 0.8 μM: 12
- Chemical string: "CN1c2ccc(-c3cncc(Cl)c3N3CCC4(CC3)NCNC4=O)cc2CS1(=O)=O"
  Measurement unit: "µL/min/mg"
  microsomal CLint at 0.8 μM: 20
- Chemical string: "CN1c2ccc(-c3cncc(Cl)c3N3CCC(F)(C(N)=O)CC3)cc2CS1(=O)=O"
  Measurement unit: "µL/min/mg"
  microsomal CLint at 0.8 μM: 51

1: CC(C)n1cc(-c2ccc(-c3cncc(Cl)c3N3CCC4(CCNC4=O)CC3)cc2)cn1
2: Cn1cc(-c2ccc(-c3cncc(Cl)c3N3CCC4(CC3)NCCNC4=O)cc2)cn1
Inquiry: Among 1 and 2 , whose measured microsomal CLint at 0.8 μM is the smaller figure? Let me know the label of the one you choose.
Reply text: 2
(2: 49 µL/min/mg, 1: 90 µL/min/mg)
